- ASSAYED_TARGET: RBD of the S protein of SARS-CoV-2 (SARS-CoV-2, UniProt P0DTC2 330-532)
- PROTOCOL_DESCRIPTION: ELISA on SARS-CoV-2 RBD
RECORDED_METRIC: pEC50
When answering, recall that pEC50 equals minus log10 of the concentration in mol/L, and write that number alone.

binder="Clone #2 (ab2) (Fab, V domains shown, also called #2 (Fab)) VH: QVQLQQSGPGLVKPSQTLSLTCAISGDSVSSNSAAWNWIRQSPSRGLEWLGRTYYRSKWYNDYAVSVKSRITINPDTSKNQFSLQLNSVTPEDTAVYYCAREQQQLVPHYYYYGMDVWGQGTTVTVSS VL: DVVMTQSPSVSGSPGQSVTISCTGTTSDVGGYNYVSWYQQRPGKAPKLMIYEVSKRPSGVPDRFSGSKSGNTASLTVSGLQAEDEADYYCSSYTSSSTLFGTGTKLTVLG" quantitative_readout=8.70
binder="Clone #4 (ab4) (scFv, also called #4 (scFv)) scFv: EVQLVQSGGGLVQPGGSLRLSCAASGFTFSNYAMTWVRQAPGKGLEWVSTIAGSGDNTYYADSVKGRFTISRDNDKNTLYLQMNSLRADDTAVYYCARDRYYTMDVWGQGTLVTVSSGGGGSGGSGSSGGGSQSVVTQPPSASGSPGQSVTISCTGTSSDVGGYNHVSWYQQHPGKAPKLLIYEVSERPSGVPDRFSGSKSDNKASLTIIGLQTEDEADYYCQSYDSSLSGSLFGTGTKLTVLR" quantitative_readout=8.00
binder="Clone #6 (ab6) (other, also called #6 (VH domain)) VH: EVQLVESGGGVVQPGRSLRLSCAASGFTFSSYAMHWVRQAPGKGLEWIGNIYHDGSTFYNPSLKSLVTISRDDSTNTLYLQMNSLRAEDTAIYYCARVWLYGSGYMDVWGKGTLVTVSS" quantitative_readout=8.22
binder="Clone #5 (ab5) (other, also called #5 (VH domain)) VH: KVQLQQWGAGLLKPSETLSLTCAVYGGSFSGYYWSWIRQPPGKGLEWIGEINHSGSTNYNPSLKSRVTISVDTSKNQFSLKLSSVTAADTAVYYCVRLPMIKKSFDIWGPGTLVTVSS" quantitative_readout=7.70

Request: Return reported pEC50; argument: Clone #7 (ab7) (other, also called #7 (VH domain)) VH: EVQLVESGGGLVQPGGSLRLSCAASAFDFYDYEMSWVRQAPGKALEWIGEIHHSGSTYYNPSLKGRFTISRDNSKNTLYLQMNSLRAEDTAVYYCAKDVSYHADVWGQGTTVTVSS
Result: 8.40
